This collection of values is drawn from ChEMBL document CHEMBL3774373.

test system: Klebsiella pneumoniae; experiment: Antibacterial activity against Klebsiella pneumoniae ATCC BAA-2146 expressing NDM-1 after 18 hrs by 2 fold serial dilution method; assay type: functional; details: ATCC BAA-2146, 18 h
Numbered stars: 1 amine (or outer) side, 2 acyl side, 3 side chain; on linkers, the order of the positions; unused ones are H or OH. Bridge positions count the residues as written; N and C are the ends. Square brackets hold non-standard residues; d marks the D form. Peptide text beside a SMILES is read from it. * marks the point of attachment. Bip = N[C@@H](Cc1ccc(-c2ccccc2)cc1)C(=O)O; NH(2-ClPh) = Clc1ccccc1N*; hSer = N[C@@H](CCO)C(=O)O; Octanoyl = CCCCCCCC(=O)*; Dab = NCC[C@H](N)C(=O)O; CO = O=C([*:1])[*:2]
The compounds listed here are annotated with their MIC.
VALUE KIND: MIC

>  <COMPOUND>
CCCCCCCC(=O)N[C@@H](CCN)C(=O)N[C@H](C(=O)N[C@@H](CCN)C(=O)N[C@H]1CCNC(=O)[C@H]([C@@H](C)O)NC(=O)[C@H](CCN)NC(=O)[C@H](CCN)NC(=O)[C@H](CC(C)C)NC(=O)[C@@H](Cc2ccccc2)NC(=O)[C@H](CCCNC(=N)N)NC1=O)[C@@H](C)O (Octanoyl-[Dab]T[Dab][Dab]R[dF]L[Dab][Dab]T; lactam 4-C)

>  <ENDPOINT RESULT>
32 µg/mL

$$$$
>  <COMPOUND>
CCCCCCCC(=O)N[C@@H](CCN)C(=O)N[C@H](C(=O)N[C@@H](CCN)C(=O)N[C@H]1CCNC(=O)[C@H]([C@@H](C)O)NC(=O)[C@H](CCN)NC(=O)[C@H](CCO)NC(=O)[C@H](CC(C)C)NC(=O)[C@@H](Cc2ccccc2)NC(=O)[C@H](CCN)NC1=O)[C@@H](C)O (Octanoyl-[Dab]T[Dab][Dab][Dab][dF]L[hSer][Dab]T; lactam 4-C)

>  <ENDPOINT RESULT>
2 µg/mL

$$$$
>  <COMPOUND>
CC(C)C[C@@H]1NC(=O)[C@@H](Cc2ccccc2)NC(=O)[C@H](CCN)NC(=O)[C@@H](NC(=O)[C@H](CCN)NC(=O)[C@@H](NC(=O)[C@H](CCN)NC(=O)Nc2ccccc2Cl)[C@@H](C)O)CCNC(=O)[C@H]([C@@H](C)O)NC(=O)[C@H](CCN)NC(=O)[C@H](CCN)NC1=O ({NH(2-ClPh)-CO}-[Dab]T[Dab][Dab][Dab][dF]L[Dab][Dab]T; lactam 4-C)

>  <ENDPOINT RESULT>
4 µg/mL

$$$$
>  <COMPOUND>
CCCCCCCC(=O)N[C@@H](CCN)C(=O)N[C@H](C(=O)N[C@@H](CCN)C(=O)N[C@H]1CCNC(=O)[C@H]([C@@H](C)O)NC(=O)[C@H](CCN)NC(=O)[C@H](CCN)NC(=O)[C@H](Cc2ccc(-c3ccccc3)cc2)NC(=O)[C@@H](Cc2ccccc2)NC(=O)[C@H](CCN)NC1=O)[C@@H](C)O (Octanoyl-[Dab]T[Dab][Dab][Dab][dF][Bip][Dab][Dab]T; lactam 4-C)

>  <ENDPOINT RESULT>
1 µg/mL

$$$$

----------
The molecules listed here are annotated with their MIC.
test system: Acinetobacter baumannii; assay: Antibacterial activity against clinical isolate carbapenem and polymyxin resistant Acinetobacter baumannii Ptyela 100734512:2 after 18 hrs by 2 fold serial dilution method; type: functional; details: Ptyela 100734512:2, 18 h
Bridge positions count the residues as written; N and C are the ends. Square brackets hold non-standard residues; d marks the D form. Peptide text beside a SMILES is read from it. * marks the point of attachment. ξ: configuration not given here. dBip = N[C@H](Cc1ccc(-c2ccccc2)cc1)C(=O)O; Phe(4-NH2) = Nc1ccc(C[C@H](N)C(=O)O)cc1; ξGly(octyl) = CCCCCCCCC(N)C(=O)O; dDab = NCC[C@@H](N)C(=O)O; Octanoyl = CCCCCCCC(=O)*; Dab = NCC[C@H](N)C(=O)O

>  <MOLECULE>
CCCCCCCCC1NC(=O)[C@@H](Cc2ccccc2)NC(=O)[C@H](CCN)NC(=O)[C@@H](NC(=O)[C@H](CCN)NC(=O)[C@@H](NC(=O)[C@H](CCN)NC(=O)CCCCCCC)[C@@H](C)O)CCNC(=O)[C@H]([C@@H](C)O)NC(=O)[C@H](CCN)NC(=O)[C@H](CCN)NC1=O (stereo partly specified) (Octanoyl-[Dab]T[Dab][Dab][Dab][dF][ξGly(octyl)][Dab][Dab]T; lactam 4-C)

>  <MIC>
8 µg/mL

$$$$
>  <MOLECULE>
CCCCCCCC(=O)N[C@@H](CCN)C(=O)N[C@H](C(=O)N[C@@H](CCN)C(=O)N[C@H]1CCNC(=O)[C@H]([C@@H](C)O)NC(=O)[C@H](CCN)NC(=O)[C@H](CCNC(=O)[C@@H](N)CCCNC(=N)N)NC(=O)[C@H](CC(C)C)NC(=O)[C@@H](Cc2ccccc2)NC(=O)[C@H](CCN)NC1=O)[C@@H](C)O

>  <MIC>
> 32 µg/mL

$$$$
>  <MOLECULE>
CCCCCCCC(=O)N[C@@H](CCN)C(=O)N[C@H](C(=O)N[C@@H](CCN)C(=O)N[C@H]1CCNC(=O)[C@H]([C@@H](C)O)NC(=O)[C@H](CCN)NC(=O)[C@H](CCN)NC(=O)[C@H](CC(C)C)NC(=O)[C@@H](Cc2ccccc2)NC(=O)[C@H](CCNC(=O)[C@@H](N)CCCNC(=N)N)NC1=O)[C@@H](C)O (Octanoyl-[Dab]T[Dab][Dab][Dab](Arg)[dF]L[Dab][Dab]T; lactam 4-C)

>  <MIC>
> 32 µg/mL

$$$$
>  <MOLECULE>
CCCCCCCC(=O)N[C@@H](CCN)C(=O)N[C@H](C(=O)N[C@@H](CCN)C(=O)N[C@H]1CCNC(=O)[C@H]([C@@H](C)O)NC(=O)[C@H](CCN)NC(=O)[C@H](CCN)NC(=O)[C@H](CC(C)C)NC(=O)[C@@H](Cc2ccccc2)NC(=O)[C@H](CCNC(=O)[C@@H](N)CCC(=O)O)NC1=O)[C@@H](C)O (Octanoyl-[Dab]T[Dab][Dab][Dab](Glu)[dF]L[Dab][Dab]T; lactam 4-C)

>  <MIC>
> 32 µg/mL

$$$$
>  <MOLECULE>
CCCCCCCC(=O)N[C@@H](CCN)C(=O)N[C@H](C(=O)N[C@@H](CCN)C(=O)N[C@H]1CCNC(=O)[C@H]([C@@H](C)O)NC(=O)[C@H](CCN)NC(=O)[C@H](CCN)NC(=O)[C@H](CC(C)C)NC(=O)[C@@H](Cc2ccc(-c3ccccc3)cc2)NC(=O)[C@H](CCN)NC1=O)[C@@H](C)O (Octanoyl-[Dab]T[Dab][Dab][Dab][dBip]L[Dab][Dab]T; lactam 4-C)

>  <MIC>
8 µg/mL

$$$$
>  <MOLECULE>
CCCCCCCC(=O)N[C@@H](CCN)C(=O)N[C@H](C(=O)N[C@@H](CCN)C(=O)N[C@H]1CCNC(=O)[C@H]([C@@H](C)O)NC(=O)[C@H](CCN)NC(=O)[C@H](Cc2ccc(N)cc2)NC(=O)[C@H](CC(C)C)NC(=O)[C@@H](Cc2ccccc2)NC(=O)[C@H](CCN)NC1=O)[C@@H](C)O

>  <MIC>
> 32 µg/mL

$$$$
>  <MOLECULE>
CCCCCCCC(=O)N[C@H](CCN)C(=O)N[C@H](C(=O)NCC(=O)N[C@H]1CCNC(=O)[C@H]([C@@H](C)O)NC(=O)[C@H](CCN)NC(=O)[C@H](CCN)NC(=O)[C@H](CC(C)C)NC(=O)[C@@H](Cc2ccccc2)NC(=O)[C@H](CCN)NC1=O)[C@@H](C)O (Octanoyl-[dDab]TG[Dab][Dab][dF]L[Dab][Dab]T; lactam 4-C)

>  <MIC>
> 32 µg/mL

$$$$
>  <MOLECULE>
CCCCCCCC(=O)N[C@@H](CCN)C(=O)N[C@H](C(=O)N[C@@H](CCN)C(=O)N[C@H]1CCNC(=O)[C@H]([C@@H](C)O)NC(=O)[C@H](CCNC(=O)[C@@H](N)CCCNC(=N)N)NC(=O)[C@H](CCN)NC(=O)[C@H](CC(C)C)NC(=O)[C@@H](Cc2ccccc2)NC(=O)[C@H](CCN)NC1=O)[C@@H](C)O (Octanoyl-[Dab]T[Dab][Dab][Dab][dF]L[Dab][Dab](Arg)T; lactam 4-C)

>  <MIC>
> 32 µg/mL

$$$$
>  <MOLECULE>
CCCCCCCCC1NC(=O)[C@H](CCN)NC(=O)[C@@H](NC(=O)[C@H](CCN)NC(=O)[C@@H](NC(=O)[C@H](CCN)NC(=O)CCCCCCC)[C@@H](C)O)CCNC(=O)[C@H]([C@@H](C)O)NC(=O)[C@H](CCN)NC(=O)[C@H](CCN)NC(=O)[C@H](CC(C)C)NC1=O (stereo partly specified) (Octanoyl-[Dab]T[Dab][Dab][Dab][ξGly(octyl)]L[Dab][Dab]T; lactam 4-C)

>  <MIC>
16 µg/mL

$$$$
>  <MOLECULE>
CCCCCCCC(=O)N[C@@H](CCN)C(=O)N[C@H](C(=O)N[C@@H](CCN)C(=O)N[C@H]1CCNC(=O)[C@H]([C@@H](C)O)NC(=O)[C@H](CCN)NC(=O)[C@H](CCNC(=O)[C@@H](N)CCC(=O)O)NC(=O)[C@H](CC(C)C)NC(=O)[C@@H](Cc2ccccc2)NC(=O)[C@H](CCN)NC1=O)[C@@H](C)O (Octanoyl-[Dab]T[Dab][Dab][Dab][dF]L[Dab](Glu)[Dab]T; lactam 4-C)

>  <MIC>
> 32 µg/mL

$$$$
>  <MOLECULE>
CCCCCCCC(=O)N[C@@H](CCN)C(=O)N[C@H](C(=O)N[C@@H](CCN)C(=O)N[C@H]1CCNC(=O)[C@H]([C@@H](C)O)NC(=O)[C@H](Cc2ccc(N)cc2)NC(=O)[C@H](CCN)NC(=O)[C@H](CC(C)C)NC(=O)[C@@H](Cc2ccccc2)NC(=O)[C@H](CCN)NC1=O)[C@@H](C)O (Octanoyl-[Dab]T[Dab][Dab][Dab][dF]L[Dab][Phe(4-NH2)]T; lactam 4-C)

>  <MIC>
> 32 µg/mL

$$$$
